These measurements were taken from paper PMC7996328.

- measurement target: 5-HT2A receptor (Rattus norvegicus)
- Construct: from tissue; host or cells: rat frontal cortex (male SD), membrane homogenate
- Sequence (P14842 whole entry): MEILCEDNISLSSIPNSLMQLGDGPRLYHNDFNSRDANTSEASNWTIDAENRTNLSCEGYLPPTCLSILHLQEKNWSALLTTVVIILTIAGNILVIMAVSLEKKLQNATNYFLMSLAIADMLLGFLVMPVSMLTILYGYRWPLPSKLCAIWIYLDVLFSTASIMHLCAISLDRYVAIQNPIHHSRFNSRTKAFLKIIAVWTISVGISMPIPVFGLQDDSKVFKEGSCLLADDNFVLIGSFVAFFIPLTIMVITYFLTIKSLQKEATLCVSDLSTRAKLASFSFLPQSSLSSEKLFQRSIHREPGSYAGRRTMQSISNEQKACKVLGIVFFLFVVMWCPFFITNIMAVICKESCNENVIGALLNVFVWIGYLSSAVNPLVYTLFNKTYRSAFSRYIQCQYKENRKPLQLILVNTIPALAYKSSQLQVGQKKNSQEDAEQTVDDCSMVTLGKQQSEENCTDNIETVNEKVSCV
- test details: 5-HT2A competition binding assay, [3H]ketanserin, frontal cortex homogenates
- test settings: [3H]ketanserin 1 nM, read-out: Ki (nM ± SEM) (converted)
parameter: Ki (nM)
Value expressed in nM; do not type the unit.

Below, 4 compounds whose answers are already recorded.
INSERT INTO measurements (smiles_record, reported) VALUES
  ('COc1cccc(N2CCN(CCCCCOc3c(C(C)=O)c(C)cc4oc(=O)cc(C)c34)CC2)c1', 492),
  ('COc1cccc(N2CCN(CCCCCOc3cc(C)cc4oc(=O)cc(C)c34)CC2)c1', 610),
  ('Cc1cc(C)cc(N2CCN(CCCCCOc3cc(C)cc4oc(=O)cc(C)c34)CC2)c1', 1820),
  ('CC(=O)c1c(C)cc2oc(=O)cc(C)c2c1OCCCCCN1CCN(c2cc(C)ccc2C)CC1', 1940);

Q: Dear colleague, please send me the reported Ki for `Cc1cc(OCCN2CCN(c3cccc(Cl)c3Cl)CC2)c2c(C)cc(=O)oc2c1` when you can.
Result: 4310

Q: Dear colleague, please send me the reported Ki for `Cc1cc(OCCN2CCN(c3ccccc3C#N)CC2)c2c(C)cc(=O)oc2c1` when you can.
Result: 5620

Q: Dear colleague, please send me the reported Ki for `COc1ccccc1N1CCN(CCOc2cc(C)cc3oc(=O)cc(C)c23)CC1` when you can.
Result: 1710
